Tested on: RIVA
test_protocol: growth inhibition by drug plus 177Lu-lilotomab satetraxetan (1 - RLU/untreated control) (fraction); higher = stronger inhibition
run_parameters: 100 nM; time (day): 3; 177Lu-lilotomab satetraxetan 0.5 ug/ml
The molecules listed here are annotated with their growth inhibition by drug plus 177Lu-lilotomab satetraxetan.

Illustrative cases are given below, each with its answer.
molecule=NC(=O)c1ccc2nc(-c3ccc(Oc4ccc(Cl)cc4)cc3)[nH]c2c1 result=0.455
molecule="CCN(CC)CCCC(C)Nc1nc(C)cc(Nc2ccc3nc(C)cc(N)c3c2)n1 (centres undefined)" result=0.489
molecule=Nc1ncn([C@H]2C[C@H](O)[C@@H](CO)O2)c(=O)n1 result=0.496

In the following, a different molecule is considered.
q: Could you tell me which growth inhibition by drug plus 177Lu-lilotomab satetraxetan is on file for CC[C@]1(O)C[C@H]2CN(CCc3c([nH]c4ccccc34)[C@@](C(=O)OC)(c3cc4c(cc3OC)N(C=O)[C@H]3[C@@](O)(C(=O)OC)[C@H](OC(C)=O)[C@]5(CC)C=CCN6CC[C@]43[C@@H]65)C2)C1 ?
a: 0.956

---

Test system: U-2932
test_protocol: growth inhibition by drug alone (1 - RLU/untreated control) (fraction); higher = stronger inhibition
run_parameters: 10 nM; time (day): 3; 177Lu-lilotomab satetraxetan 0 ug/ml
Class (required): determined from growth inhibition by drug alone; valid ranges are small value = under 0.03, mid value = from 0.03 up to 0.07, large value = 0.07 and over

compound=Cc1ccnc(NS(=O)(=O)c2ccc(NC(=O)Nc3ccc(S(=O)(=O)Nc4nccc(C)n4)cc3)cc2)n1 answer_label="large value"

q: The entry to classify is CC(C)CC(=O)Nc1n[nH]c2c1CN(C(=O)C1CCN(C)CC1)C2(C)C ; which class holds it?
a: large value

q: Same for COc1c(C)cnc(Cn2cnc3c(Cl)nc(N)nc32)c1C
a: large value

q: Same for CCOc1ccn(-c2ccc(F)cc2)c(=O)c1C(=O)Nc1ccc(Oc2ccnc(N)c2Cl)c(F)c1
a: large value

---

Tested on: U-2932
test_protocol: growth inhibition by drug plus 177Lu-lilotomab satetraxetan (1 - RLU/untreated control) (fraction); higher = stronger inhibition
run_parameters: 1000 nM; time (day): 5; 177Lu-lilotomab satetraxetan 1 ug/ml
The compounds listed here are annotated with their growth inhibition by drug plus 177Lu-lilotomab satetraxetan.
Format: numeric value only, no unit, no commentary.

substance_smiles=CC(C)(C)c1cnc(CSc2cnc(NC(=O)C3CCNCC3)s2)o1 system_under_test=U-2932 readout_number=0.975

q: Could you tell me which growth inhibition by drug plus 177Lu-lilotomab satetraxetan is on file for CN(C)C[C@@H]1CCn2cc(c3ccccc32)C2=C(C(=O)NC2=O)c2cn(c3ccccc23)CCO1 ?
a: 0.458

q: Same for CCOC(=O)[C@@H](C)Oc1cccc2c(=O)n(CC(=O)Nc3ccc4c(c3)OCCO4)ccc12
a: -0.0266

q: Same for CO[C@H]1C[C@@H]2CC[C@@H](C)[C@@](O)(O2)C(=O)C(=O)N2CCCC[C@H]2C(=O)O[C@H]([C@H](C)C[C@@H]2CC[C@@H](OC(=O)C(C)(CO)CO)[C@H](OC)C2)CC(=O)[C@H](C)/C=C(\C)[C@@H](O)[C@@H](OC)C(=O)[C@H](C)C[C@H](C)/C=C/C=C/C=C/1C
a: 0.651

---

Tested on: RIVA
test_protocol: growth inhibition by drug plus 177Lu-lilotomab satetraxetan (1 - RLU/untreated control) (fraction); higher = stronger inhibition
run_parameters: 100 nM; time (day): 4; 177Lu-lilotomab satetraxetan 0.5 ug/ml
Counter-ions that a name gives are not always drawn.
The compounds listed here are annotated with their growth inhibition by drug plus 177Lu-lilotomab satetraxetan.
Format: numeric value only, no unit, no commentary.

Illustrative cases are given below, each with its answer.
compound="COC1=CC(c2cc3ccccc3[nH]2)=N/C1=C\\c1[nH]c(C)cc1C [Obatoclax mesylate (GX15-070)]" system_under_test=RIVA readout_number=0.411
compound=Cc1cc(Nc2cc(N3CCN(C)CC3)nc(Sc3ccc(NC(=O)C4CC4)cc3)n2)n[nH]1 system_under_test=RIVA readout_number=0.547

In the following, a different compound is considered.
q: For RIVA, provide growth inhibition by drug plus 177Lu-lilotomab satetraxetan of Cc1cc(Nc2cc(N3CCN(C)CC3)nc(/C=C/c3ccccc3)n2)n[nH]1 please.
a: 0.353

---

Tested on: RIVA
test_protocol: growth inhibition by drug alone (1 - RLU/untreated control) (fraction); higher = stronger inhibition
run_parameters: 100 nM; time (day): 5; 177Lu-lilotomab satetraxetan 0 ug/ml
Where a name gives a salt, the structure may show the parent alone.
The compounds listed here are annotated with their growth inhibition by drug alone.
Format: numeric value only, no unit, no commentary.

Illustrative cases are given below, each with its answer.
compound="CN(NC(=O)CC(=O)NN(C)C(=S)c1ccccc1)C(=S)c1ccccc1 [Elesclomol]" readout_type="growth inhibition by drug alone" readout_number=0.975
compound="COc1nc(C)cnc1NS(=O)(=O)c1cccnc1-c1ccc(-c2nnco2)cc1 [Zibotentan (ZD4054)]" readout_type="growth inhibition by drug alone" readout_number=-0.0583
compound=COc1cc(C(=O)NC(=S)Nc2cccc(NC(=O)c3ccccc3)c2)cc(OC)c1OC readout_type="growth inhibition by drug alone" readout_number=0.00408
compound="N#CC1(c2ccc(NC(=O)c3cccnc3NCc3ccncc3)cc2)CCCC1 [Apatinib (YN968D1)]" readout_type="growth inhibition by drug alone" readout_number=-0.084
compound=O=c1cc(-c2cccc3c2Sc2ccccc2S3)oc(N2CCOCC2)c1 readout_type="growth inhibition by drug alone" readout_number=-0.119
compound="COc1cc(Nc2ncc(F)c(Nc3ccc4c(n3)NC(=O)C(C)(C)O4)n2)cc(OC)c1OC [R406(free base)]" readout_type="growth inhibition by drug alone" readout_number=-0.353
compound="Nc1nc2[nH]cc(CCc3ccc(C(=O)N[C@@H](CCC(=O)O)C(=O)O)cc3)c2c(=O)[nH]1 [Pemetrexed]" readout_type="growth inhibition by drug alone" readout_number=-0.377
compound=CN(C)c1ccccc1CN1CCCN(Cc2ccccc2N(C)C)C1c1ccncc1 readout_type="growth inhibition by drug alone" readout_number=-0.101

q: Could you tell me which growth inhibition by drug alone is on file for CNC(=O)c1cc(COc2nnc(Nc3ccc(Cl)cc3)c3ccoc23)ccn1 [Telatinib (BAY 57-9352)] ?
a: -0.212

q: Same for OCCn1cc(-c2ccc3c(c2)CC/C3=N\O)c(-c2ccncc2)n1
a: -0.171

q: Same for O=C(NCCCNc1nc(Nc2cccc(NC(=O)N3CCCC3)c2)ncc1I)c1cccs1
a: 0.346

q: Same for COc1cccc2c1C(=O)c1c(O)c3c(c(O)c1C2=O)C[C@@](O)(C(C)=O)C[C@@H]3O[C@H]1C[C@H](N)[C@H](O)[C@H](C)O1 [Daunorubicin HCl (Daunomycin HCl)]
a: 0.857

q: Same for COc1cc2c(cc1O)CC[C@@H]1[C@@H]2CC[C@]2(C)[C@@H](O)CC[C@@H]12 [2-Methoxyestradiol]
a: -0.534

q: Same for C[C@]1(O)C[C@@H](c2nc(-c3ccc4ccc(-c5ccccc5)nc4c3)c3c(N)nccn32)C1 [Linsitinib (OSI-906)]
a: -0.329

q: Same for CN(C)CCCCSC(=N)N
a: -0.0858

q: Same for COc1ccc(CCN2CCN(CCCc3ccccc3)CC2)cc1OC
a: -0.797

q: Same for COC1=CC(c2cc3ccccc3[nH]2)=N/C1=C\c1[nH]c(C)cc1C [Obatoclax mesylate (GX15-070)]
a: -0.309

q: Same for Nc1[nH]nc2nnc(-c3c(-c4ccccc4)nn4ccccc34)cc12
a: 0.00135

---

System: RIVA
test_protocol: growth inhibition by drug alone (1 - RLU/untreated control) (fraction); higher = stronger inhibition
run_parameters: 100 nM; time (day): 5; 177Lu-lilotomab satetraxetan 0 ug/ml
Where a name gives a salt, the structure may show the parent alone.
The molecules listed here are annotated with their growth inhibition by drug alone.
Format: numeric value only, no unit, no commentary.

molecule=Nc1nc(N)c(N=O)c(OCC2CCCCC2)n1 system_under_test=RIVA readout_number=-0.322
molecule="Cc1nnc(C(C)C)n1C1C[C@H]2CC[C@@H](C1)N2CC[C@H](NC(=O)C1CCC(F)(F)CC1)c1ccccc1 (stereo in doubt)" system_under_test=RIVA readout_number=0.0269
molecule=Cc1[nH]c2ccccc2c1CCNCc1ccc(/C=C/C(=O)NO)cc1 system_under_test=RIVA readout_number=0.975
molecule=Cc1cc(O)c2c(c1)C(=O)c1cccc(O)c1C2=O system_under_test=RIVA readout_number=-0.0963
molecule="CC(C)n1c(/C=C/C(O)CC(O)CC(=O)O)c(-c2ccc(F)cc2)c2ccccc21 (stereo unspecified) [Fluvastatin sodium (Lescol)]" system_under_test=RIVA readout_number=-0.385
molecule="COc1cccc2c1C(=O)c1c(O)c3c(c(O)c1C2=O)C[C@@](O)(C(=O)CO)C[C@@H]3O[C@H]1C[C@H](N)[C@@H](O)[C@H](C)O1 [Epirubicin Hydrochloride]" system_under_test=RIVA readout_number=0.848

q: For RIVA, provide growth inhibition by drug alone of CCNC(=O)c1noc(-c2cc(C(C)C)c(O)cc2O)c1-c1ccc(CN2CCOCC2)cc1 please.
a: 0.978

q: Same for C=C1/C(=C\C=C2/CCC[C@]3(C)[C@@H]([C@H](C)/C=C/[C@H](C)C(C)C)CC[C@@H]23)C[C@@H](O)C[C@@H]1O
a: 0.103

q: Same for CC1=C(/C=C/C(C)=C/C=C/C(C)=C/C(=O)Nc2ccc(O)cc2)C(C)(C)CCC1 [Fenretinide]
a: -0.337

q: Same for Nc1nc(Cl)nc2c1ncn2[C@@H]1O[C@H](CO)[C@@H](O)[C@@H]1F
a: 0.781

q: Same for O=C1CN2Cc3c(ccc(Cl)c3Cl)N=C2N1 [Anagrelide hydrochloride]
a: 0.119

q: Same for COc1cc(Nc2c(C#N)cnc3cc(OCCCN4CCN(C)CC4)c(OC)cc23)c(Cl)cc1Cl [Bosutinib (SKI-606)]
a: -0.406

q: Same for CC(C)c1ccc(Cn2ccc3c4c(N)nc(NC5CC5)nc4ccc32)cc1
a: 0.491
